Listing: protein stability index of selected sequences
# experiment notes: protein stability index of a GFP-peptide fusion (GPS, HEK-293T) (PSI 1-6); higher = more stable;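 also: 24-mer peptide tiles fused after GFP, lentivirally expressed, FACS-sorted into six equal bins by GFP/DsRed ratio, decoded by Illumina sequencing, PSI is the read-weighted mean bin number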
# condition details: treatment: MLN4924 1 uM, 8 h; c terminus: a fixed tail appended
Answer with a bare number; do not write a unit.

Solved entries:
seq string: ISLAKGPPGPKGDQGDEGKEGRPG [SCARA5]
protein stability index: 5.49

seq string: SGRVKRERDREREPEAASSRGSPV [USP39]
protein stability index: 5.33

seq string: QLVLVAAGFDALQGDPKGEMAATP [HDAC6]
protein stability index: 2.8

seq string: GGAGKEGVRVNNRFELINIDDLED [TCF25]
protein stability index: 4.91

Could you now consider this next sequence?
Annotate the sequence AQQIRLHHFNSSHLEIDDMYTPAY [MYORG] with its measured protein stability index.
2.91

----------
# experiment notes: protein stability index of a GFP-peptide fusion (GPS, HEK-293T) (PSI 1-6); higher = more stable
# condition details: treatment: DMSO; c terminus: a fixed tail appended
Lab note: anything with protein stability index at or over 3 counts as True; the rest go in False.

Completed entries (count: 5):
seq string: PDYGVPSSAASLIDFLRVVRNQQS [PTPN9]
class label: False

seq string: YYSPILDQWTPIAAMLRGQSDVGV [KLHL13]
class label: False

seq string: QLCDVSIRVQGREFRAHRAVLAAS [ZBTB22]
class label: False

seq string: IENYKKQTRNGLGKDHEILRRRIE [FUT8]
class label: True

seq string: GMEGDWSWVDDTPFNKVQSARFWI [CD207]
class label: False

Does LALRQGVEADINGLRRVLDELTLA [KRT15] have a reported protein stability index of at least 3?
False

Does SMNFSMMSTNTVGLGLPMSRSQNT [CLINT1] have a reported protein stability index of at least 3?
True

Does LHGKAIKVEQAKKPSFQSGGRRRP [RBMY1A1] have a reported protein stability index of at least 3?
True

Does GETDEVTKTEDRELVLRKDCPKIV [ZSCAN9] have a reported protein stability index of at least 3?
True

Does LDELLGRGMATKLLARPGTGEHRE [FBF1] have a reported protein stability index of at least 3?
True

----------
# experiment notes: protein stability index of a GFP-peptide fusion (GPS, HEK-293T) (PSI 1-6); higher = more stable
# condition details: treatment: MLN4924 1 uM, 8 h; c terminus: a fixed tail appended
Lab note: anything with protein stability index at or over 3 counts as rule met; the rest go in rule not met.

seq string: SGESNSAVSTEDLKECLKKQLEFC [LARP4]
class label: rule met
--
seq string: FFYPLVEDPYMMGRIACANVLSDL [SEPHS2]
class label: rule not met
--
seq string: PVTPLGLQNEVPPQPDPVFLEALS [SERTAD3]
class label: rule met
--
seq string: GIGYNGMPNGCSDDVLPWRRTAEN [DCTD]
class label: rule not met
--
seq string: HWNGRHKPWDFPSVHNDLWESWFV [GLT8D2]
class label: rule not met
--
seq string: RQKKLMHKLQEEKAFREEMKIFRE [CCDC70]
class label: rule met
--
seq string: MEKIPFVLGGNLQGGELVVAYPYD [CPXM2]
class label: rule not met
--
seq string: TNFVSRYDPRFNSWIQLPPMQERR [KLHL14]
class label: rule met

Does CFALIPKAPKKDVIKMLVNDNKVL [EFHC1] have a reported protein stability index of at least 3?
rule not met

Does LTYINEDRISTTFRLTTLLMSGCS [PLK2] have a reported protein stability index of at least 3?
rule not met

Does MHHCKRYRSPEPDPYLSYRWKRRR [CLK3] have a reported protein stability index of at least 3?
rule met

Does EEKAFESVIEPVQESSFRSRKIAV [MIA2] have a reported protein stability index of at least 3?
rule met

Does TPPLKNVRKKRFRKTQKKVPDVKE [TAF7L] have a reported protein stability index of at least 3?
rule met

Does PRPDMAPELTPEEEQATKQFLEEI [PTPN9] have a reported protein stability index of at least 3?
rule met

Does KQQRNEVSFVIHNLPIIAKMAAVS [SEPHS2] have a reported protein stability index of at least 3?
rule not met

Does EEEISETGELVGPFVSAMPTPMPH [ZBED2] have a reported protein stability index of at least 3?
rule met

Does RFYRSPEVLLGTPYDLAIDMWSLG [DYRK1B] have a reported protein stability index of at least 3?
rule not met

----------
# experiment notes: protein stability index of a GFP-peptide fusion (GPS, HEK-293T) (PSI 1-6); higher = more stable
# condition details: treatment: MLN4924 1 uM, 8 h; c terminus: native
Lab note: anything with protein stability index at or over 3 counts as MET; the rest go in NOT MET.

Completed entries (count: 2):
seq string: SRISHLVLPVQPVSSIEEQGCLF [TOR1AIP2]
class label: NOT MET
--
seq string: AFRALASAQCPQFGIPRKRLKQS [SPOPL]
class label: NOT MET

Does HQRSSSESYTQSFQSRKPFFSWW [PI4K2A] have a reported protein stability index of at least 3?
MET

----------
# experiment notes: protein stability index of a GFP-peptide fusion (GPS, HEK-293T) (PSI 1-6); higher = more stable
# condition details: treatment: DMSO; c terminus: a fixed tail appended
Class key for protein stability index values: Low (below 3), Mid (3 to below 4), High (4 or more)

Completed entries (count: 5):
seq string: GGMQALGLHLTDPSQRLVQNCLWT [CTNNB1]
class label: Low

seq string: SELSESAFGYFITACAVIILTIIC [SLC29A1]
class label: Low

seq string: FFYPLVEDPYMMGRIACANVLSDL [SEPHS2]
class label: Low

seq string: SSKFYDLFLMECEESPNGSEGACE [RHOBTB1]
class label: Mid

seq string: SHQYDRIYCGAGVQKDHENYMKIL [PCMTD1]
class label: Low

Exam item: assign EMRFAKMPDEPVEAPALPAPAAPM [BRD3] to the correct category.
High

Exam item: assign GGYFKARLKFPIDYPYSPPAFRFL [CDC34] to the correct category.
Low

Exam item: assign LPTDGSTGVELAPRSAEPGYLVTK [PCDHGA10] to the correct category.
High

Exam item: assign LKAIIFFDPDAKGLSDPGKIKRLR [HNF4A] to the correct category.
Low

Exam item: assign DDSKFPIEDTPLVPVSFIFIFTFV [PCDHGA10] to the correct category.
Mid

Exam item: assign IFCLHGGLSPSIDTLDHIRALDRL [PPP2CA] to the correct category.
Low

----------
# experiment notes: protein stability index of a GFP-peptide fusion (GPS, HEK-293T) (PSI 1-6); higher = more stable
# condition details: treatment: MLN4924 1 uM, 8 h; c terminus: a fixed tail appended
Lab note: anything with protein stability index at or over 3 counts as 1.0; the rest go in 0.0.

seq string: NISHTKEKKKGKAKKKRLTKADIG [WASL]
class label: 1.0
--
seq string: KFSPDGKYVVSGFDVDHGICIMDA [WDR88]
class label: 1.0
--
seq string: TNFVVQVSVFIGVLIDLWKITKVM [CLPTM1]
class label: 1.0
--
seq string: CANFGDQGITMGCWDMYRHDIDCQ [LOXL2]
class label: 0.0
--
seq string: GARAALNEIESRHRELLRLESRIR [STX11]
class label: 1.0

Would you kindly look at the next entry?
Does FGCEECGKKYNTMLGYKRHLALHA [PLAGL1] have a reported protein stability index of at least 3?
1.0

----------
# experiment notes: protein stability index of a GFP-peptide fusion (GPS, HEK-293T) (PSI 1-6); higher = more stable
# condition details: treatment: DMSO; c terminus: a fixed tail appended
Lab note: anything with protein stability index at or over 3 counts as 1; the rest go in -1.

Completed entries (count: 4):
seq string: FHYLVFDLVTGGELFEDIVAREYY [CAMK2B]
class label: 1
--
seq string: VYHPSPEESRDPTLYANNVQRVMA [LPCAT4]
class label: 1
--
seq string: ELGKGAFSVVRRCMKIPTGQEYAA [CAMK2D]
class label: -1
--
seq string: AAQEGHLELVKYLLAAGANVHATT [ANKRD17]
class label: -1

Does AQSPGAVEEILDRENKRMADSLAS [BET1L] have a reported protein stability index of at least 3?
1

Does SGRARQQDEEMLELPAPAEVAAKN [MLH1] have a reported protein stability index of at least 3?
1

Does DMIYVSGGFDGSRRHTSMERYDPN [KLHL12] have a reported protein stability index of at least 3?
1

Does RYHLQQNVHFKEETVKLFICELVM [STK32A] have a reported protein stability index of at least 3?
-1

Does PCSVIRPILKRLERPQDRDTPVQN [CDC25B] have a reported protein stability index of at least 3?
1

Does FVMFLCLADYLVPILAPRIFGSNK [ARL6IP1] have a reported protein stability index of at least 3?
1

Does RYDPEPKSKWDEEWDKNKSAFPFS [CLINT1] have a reported protein stability index of at least 3?
1

Does NVQRLAEPSQMLKHAVVNLINYQD [CTNNB1] have a reported protein stability index of at least 3?
-1
